Entry source: the nanobody polyreactivity screen of Harvey et al. (2022)

experimental_details: yeast display, Sf9 membrane polyspecificity reagent, FACS + sequencing; frameworks hold sequencing errors
quantity_name: polyreactivity (PSR sort gate)

# count of solved cases: 4
QVQLVESGGGLVQAAGSLRLICAASGLTFGANDMGWSRQAPGTERELVAAIDWSGGSTFFADSVKGRFTISRDNAKNTVYLQMNTLKPEDTAVYYCAALGFGYPYPEYDSWGQGTQVTVSA; low polyreactivity
QVQLVESGGGLVQAGGSLRLSCAASGRIFNSYAMGWSRQAPGNERELVAAISSGGSTYYADSVKGRFTISRDNAKNTVYLQMNSLKPEDTAVYYCAARIWTGRGRKLGYGYDYWGQGTQVTVSS; low polyreactivity
QVQLVDSGGGLVQAGGSLRLSCAASGGTISQYAMGWYRQAPGKERELVARISRRGGSTSYADSVKGRFTISRDNAKNTVYLQMNSLKPEDTAVYYCNAVRFYGRWRWIMEYWGQGSQVTVSS; high polyreactivity
QVQLVESGGGLVQAGGSLRLSCAAYGFTFASNVMGWYRQAPGKDRELVAAITSGASTNYADSVKGRFTISRDNAKNTVYLQMNSLKPVDTAVYYCAAGRQWYVFYEFDYWGQGTQVTVSS; high polyreactivity

From here, focus on the item given below.
Record request: polyreactivity (PSR sort gate) value, item QVQLVESGGGIVQAGGSLRLSCAASGFTLWLNAMGWYRQAPGKERELVAAITTSDDGTYYADSVKGRFTISRDNAKNTVYLQMNSLKPEDTAVYYCASDYYSVLYDYWGQGTQLTVSS
low polyreactivity
